Biological target: Chymotripsin (Bos taurus)
Test: Chymotripsin inhibiting activity (hydrolysis of ATEE)
Format: biochemical
Conditions: 0.5 h; 1 × 10^-4 mol; 20 min preincubation, ATEE 30 min, 37° C., pH 8.0
Method: 2. Chymotripsin Inhibiting Activity Chymotripsin (0.1 unit) serving as an enzyme solution is added to a specified quantity of buffer solution (pH 8.0) containing 0.1 mole of trishydrochloric acid. To the mixture is further added a 50% ethanol solution of the compound of the invention. The mixture is reacted at 37° C. for 20 minutes. […] After the completion of the reaction, the amount of remaining ATEE is determined by the same hydroxamic acid method as above. […]
TEST READOUT: inhibition at 100 µM (%)
Please give a number only; it is taken to be in %.

{"COMPOUND": "CCOc1ccc(S(=O)(=O)OCC(=O)C(CC)C2CCC(C)CC2)cc1 (stereo not shown) [Compound 14]", "inhibition at 100 µM (%)": 40}
{"COMPOUND": "CCOc1ccc(S(=O)(=O)OCC(=O)C(C)CC2CCCCC2)cc1 (stereo not shown) [Compound 4]", "inhibition at 100 µM (%)": 78}

Task: Item CC(C)C1CCC(CC(=O)COS(=O)(=O)c2ccccc2)CC1 (stereo not shown) [Compound 21] has what recorded inhibition at 100 µM?
Result: 94

Task: Which measured inhibition at 100 µM value corresponds to CCC(C)[C@H]1CC[C@H](C(=O)COS(=O)(=O)c2ccccc2)CC1 (stereo partly shown) [Compound 33] ?
Result: 19

Task: May I ask what inhibition at 100 µM has been recorded for CCOc1ccc(S(=O)(=O)OCC(=O)CC2CCCCC2C)cc1 (stereo not shown) [Compound 19] ?
Result: 57

* * *

biological target: esterase (purified microsome fraction of the liver of a rat); experiment: Esterase inhibiting activity (hydrolysis of methyl butyrate); details: methyl butyrate substrate, pH 8.0, 37° C., 60 minutes
TEST READOUT: pIC50
By convention, pIC50 is the negative base-10 log of a molar concentration.

Here is how some compounds turned out for pIC50.
{"COMPOUND": "CC(C)(C)[C@H]1CC[C@@H](C(=O)COS(=O)(=O)c2ccccc2)CC1", "pIC50": 5.34}
{"COMPOUND": "CC(C)(C)[C@H]1CC[C@H](C(=O)COS(=O)(=O)c2ccccc2)CC1", "pIC50": 5.34}
{"COMPOUND": "CCOc1ccc(S(=O)(=O)OCC(=O)C2CCC(CC)CC2)cc1 (centres unmarked)", "pIC50": 5.85}
{"COMPOUND": "Cc1cc(C)c(S(=O)(=O)OCC(=O)[C@H]2CC[C@H](C(C)C)CC2)c(C)c1", "pIC50": 6.89}
{"COMPOUND": "Cc1ccc(S(=O)(=O)OCC(=O)C(C)CC2CCCCC2)cc1 (centres unmarked)", "pIC50": 5.11}

Task: Notebook: pull reported pIC50 for esterase (purified microsome fraction of the liver of a rat), entry CC1CCCCC1CC(=O)COS(=O)(=O)c1ccccc1 (centres unmarked)
Result: 7.49

Task: For esterase (purified microsome fraction of the liver of a rat), provide pIC50 of COc1ccc(S(=O)(=O)OCC(=O)CC(C)C2CCCCC2)cc1 (centres unmarked) please.
Result: 5.46

Task: For esterase (purified microsome fraction of the liver of a rat), provide pIC50 of CCOc1ccc(S(=O)(=O)OCC(=O)[C@H]2CC[C@@H](C(C)C)CC2)cc1 please.
Result: 4.96

Task: Recorded pIC50 for Cc1ccc(S(=O)(=O)OCC(=O)CC2CCC(C)CC2)cc1 (centres unmarked) with esterase (purified microsome fraction of the liver of a rat), please?
Result: 5.85

Task: Which pIC50 is reported with esterase (purified microsome fraction of the liver of a rat) for this entry: CC(CC1CCCCC1)C(=O)COS(=O)(=O)c1ccccc1 (centres unmarked) ?
Result: 6.46

Task: I'm curious: which pIC50 was measured for CCOc1ccc(S(=O)(=O)OCC(=O)CC2CCCCC2C)cc1 (centres unmarked) tested on esterase (purified microsome fraction of the liver of a rat)?
Result: 5.27

Task: Field: pIC50 (esterase (purified microsome fraction of the liver of a rat)). Entry: CCOc1ccc(S(=O)(=O)OCC(=O)C(C)CC2CCCCC2)cc1 (centres unmarked)
Result: 4.64

Task: Lab request: please report pIC50 under test system esterase (purified microsome fraction of the liver of a rat) for CC(C)C[C@H]1CC[C@H](C(=O)COS(=O)(=O)c2ccccc2)CC1
Result: 5.80

Task: Recorded pIC50 for COc1ccc(S(=O)(=O)OCC(=O)C(C)CC2CCCCC2)cc1 (centres unmarked) with esterase (purified microsome fraction of the liver of a rat), please?
Result: 5.40

Task: Query pIC50 on esterase (purified microsome fraction of the liver of a rat) for Cc1cc(C)c(S(=O)(=O)OCC(=O)[C@H]2CC[C@@H](C(C)C)CC2)c(C)c1
Result: 5.92
